molecular target: Nucleotide-binding oligomerization domain-containing protein 1 (Homo sapiens, UniProt Q9Y239); test: blockers of NOD1 pathway activity – revised, SAR follow-up (AID 2333); format: functional
Sequence (Q9Y239 whole entry, the tested form may be a part): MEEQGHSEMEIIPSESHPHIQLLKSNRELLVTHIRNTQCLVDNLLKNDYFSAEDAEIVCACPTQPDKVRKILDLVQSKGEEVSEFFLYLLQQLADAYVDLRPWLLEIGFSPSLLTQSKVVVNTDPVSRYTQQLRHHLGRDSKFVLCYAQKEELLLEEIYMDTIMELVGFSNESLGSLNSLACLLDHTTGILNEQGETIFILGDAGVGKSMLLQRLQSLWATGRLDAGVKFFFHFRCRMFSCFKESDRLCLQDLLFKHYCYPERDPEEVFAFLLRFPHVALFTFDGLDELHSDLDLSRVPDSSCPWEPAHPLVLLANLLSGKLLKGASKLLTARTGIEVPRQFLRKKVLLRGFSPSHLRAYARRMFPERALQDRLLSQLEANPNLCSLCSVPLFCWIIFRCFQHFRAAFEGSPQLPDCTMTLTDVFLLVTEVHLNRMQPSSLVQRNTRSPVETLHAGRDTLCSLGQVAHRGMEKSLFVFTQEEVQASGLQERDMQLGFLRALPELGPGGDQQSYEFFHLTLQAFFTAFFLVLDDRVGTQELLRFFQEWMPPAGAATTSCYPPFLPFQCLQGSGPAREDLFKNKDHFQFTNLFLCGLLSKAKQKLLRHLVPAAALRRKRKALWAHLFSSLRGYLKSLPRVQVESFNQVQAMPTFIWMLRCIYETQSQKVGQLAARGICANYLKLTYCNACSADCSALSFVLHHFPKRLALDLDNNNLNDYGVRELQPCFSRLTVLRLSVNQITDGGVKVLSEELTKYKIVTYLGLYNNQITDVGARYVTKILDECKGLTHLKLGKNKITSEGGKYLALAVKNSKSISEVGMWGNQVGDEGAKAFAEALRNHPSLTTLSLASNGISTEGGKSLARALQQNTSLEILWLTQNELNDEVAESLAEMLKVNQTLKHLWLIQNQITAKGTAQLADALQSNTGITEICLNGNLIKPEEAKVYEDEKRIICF
Activity calls are given as the source filed them.
Labels: Yes for active, No for inactive

COC(=O)c1scc(S(=O)(=O)C(C)C)c1NN=C(C#N)C(=O)c1ccc(Cl)cc1; Yes
CN(C)S(=O)(=O)c1cccc(CSCc2cccc(S(=O)(=O)N(C)C)c2)c1; Yes
CCC(=O)N1CCc2cc(S(=O)(=O)N3CCN(c4ccc(C(C)=O)cc4)CC3)ccc21; No
CCn1nc(C)cc1C(=O)NC1CCCc2c1cnn2-c1ccc(C)c(C)c1 (centres undefined); Yes

---

molecular target: Streptokinase A (Streptococcus pyogenes serotype M1, UniProt P10520); assay: viability-normalized secreted streptokinase activity reduction – plasminogen activation absorbance, OD405, dose response (AID 1914); format: functional, Streptococcus pyogenes M1 GAS;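 also: secreted streptokinase activity via plasminogen activation per viability signal from cell pellet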
Sequence (P10520 whole entry): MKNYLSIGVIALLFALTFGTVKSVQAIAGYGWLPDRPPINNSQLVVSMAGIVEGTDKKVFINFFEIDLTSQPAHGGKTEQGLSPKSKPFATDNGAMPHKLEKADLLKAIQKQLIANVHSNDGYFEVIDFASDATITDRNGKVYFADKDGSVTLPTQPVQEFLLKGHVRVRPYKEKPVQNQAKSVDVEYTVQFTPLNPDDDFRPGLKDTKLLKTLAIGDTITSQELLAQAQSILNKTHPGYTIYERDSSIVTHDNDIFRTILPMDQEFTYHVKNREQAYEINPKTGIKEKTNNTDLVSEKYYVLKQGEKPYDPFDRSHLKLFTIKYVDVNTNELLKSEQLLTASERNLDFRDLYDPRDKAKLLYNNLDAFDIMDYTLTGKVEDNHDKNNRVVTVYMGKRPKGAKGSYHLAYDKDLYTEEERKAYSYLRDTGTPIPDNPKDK
Calls of active or inactive are those of the source.
Here the recorded EC50 is given for each entry.
experimental_readout: EC50

C/C(=N\NC(=O)c1cc2ccccc2cc1O)c1cccs1; > 150 µM (not active)
O=S(=O)(Nc1nc2ccccc2nc1Cl)c1ccc2ccccc2c1; 15.1 µM (active)
N#CCSc1nc2ccc(N3CCOCC3)cc2c(=O)n1CCc1ccccc1; > 150 µM (not active)
NNc1nc(-c2ccccc2)c2cc(Br)ccc2n1; > 150 µM (not active)
O=C(NCc1ccc(C(F)(F)F)cc1)c1ccc2c(c1)S(=O)(=O)c1ccccc1C2=O; > 150 µM (not active)
CCOc1ccc(Cl)cc1S(=O)(=O)n1cnc2cc(C)c(C)cc21; 7.31 µM (active)
COc1ccc(/C=C/c2ccc3cccc(O)c3n2)cc1Br; > 150 µM (not active)
OC(COc1cccc2ccccc12)CN1CCN(c2cccc(Cl)c2)CC1 (stereo not drawn); 20.1 µM (active)

---

Here the recorded EC50 is given for each entry.
assay: NIH3T3 cell viability loss – ATP luminescence, mouse fibroblasts, counter-screen, dose response (AID 2010); type: functional, cell-based;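 also: cells exposed to compound for about 90 hours before reading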
experimental_readout: EC50

O=[N+]([O-])c1nn(-c2ccc3c(c2)OCCO3)[n+]([O-])c1NC1CCCC1; > 30 µM (not active)
O=C(c1ccc(Cl)cc1)N1CCN(c2ccnc3cc(Cl)ccc23)CC1; > 60 µM (not active)
CN1CCN(C(CNC(=O)C(=O)Nc2ccc3c(c2)OCCO3)c2ccc(F)cc2)CC1 (stereo not given); > 60 µM (not active)
Cc1ccc(-c2cc3cccc[n+]3cc2-c2ccc(C)cc2)cc1; > 60 µM (not active)
Cc1[nH]cnc1C(=O)N/N=C/c1ccc([N+](=O)[O-])s1; > 60 µM (not active)

---

assay: viability of uninfected HEp-2 cells – cell-based, HTS, cytotoxicity control for RSV inhibitor project, dose response (AID 2410); format: functional; settings: human respiratory syncytial virus
Calls of active or inactive are those of the source.
Here the recorded CC50 is given for each entry.
experimental_readout: CC50

NC(=O)CC(NC(=O)Cc1cccc2ccccc12)c1ccc(NC2CC3CCC2C3)c([N+](=O)[O-])c1 (centres undefined); > 50 µM (active)
Cc1ccc(Cn2c(SCC(=O)N3CC(=O)Nc4ccccc43)nc3ccccc3c2=O)cc1; 40.2 µM (active)
Oc1nc(N/N=C/c2ccccc2Br)nnc1-c1ccccc1; 30.9 µM (active)
O=C(Nc1ccc(Cl)c(Cl)c1)c1ccc2c(c1)OCO2; > 50 µM (active)
